Taken from PubChem BioAssay (NCI).

- Tested on: CAKI-1 renal
- ASSAY PROTOCOL: NCI-60 one-dose screen, 48 h
- ASSAY CONDITIONS: 10 µM unless noted
- Procedure: Growth inhibition of the CAKI-1 human tumor cell line is measured as a screen for anti-cancer activity. Cells are grown in 96 well plates and exposed to the test compound for 48 hours. Compounds are tested at a single concentration, which is 10^-5 M for most compounds. The reported endpoint is percent growth (GI% or GIPRCNT), where numbers from 0 - 100% represent growth inhibition, and numbers from -100% - 0 represent cell death. For example, a value of 40 represents 60% growth inhibition. […]
Compounds without any hit were thinned out: in the full panel of roughly 83,000, 20% have a hit. Calls of active or inactive are those of the source. Rule for the calls: active = growth percent below 10; inactive = the rest.
Would you mind answering with one of these outcomes? active, inactive

Qu. How did this test come out for `O=C(/C=C/c1ccccn1)c1ccc(OCc2nnc(-c3ccc(Cl)cc3)o2)cc1` ?
Ans. active

Qu. What is the recorded call for this molecule in the test? `COc1cc(C(=O)O/N=C(\N)Cc2cccc3ccccc23)cc(OC)c1OC`
Ans. inactive

Qu. Please share the test call associated with `COc1cc(/C=C2\CN(C)C/C(=C\c3cc(CN4CCOCC4)c(O)c(OC)c3)C2=O)cc(CN2CCOCC2)c1O` .
Ans. inactive

Qu. # outcome recorded in this test, key = `COc1ccccc1C(=O)O/N=C(\N)Cc1cccc2ccccc12`
Ans. inactive

Qu. Hello, I am checking results. What call was entered for `CCOC(=O)c1ccc2[nH]c(-c3ccccc3)cc(=O)c2c1` ?
Ans. inactive

Qu. Which outcome was entered for the molecule `Cc1ccc2c(n1)C(=O)C(Oc1ccc(Br)cc1)=CC2=O` in this test?
Ans. inactive

Qu. Hi team, can someone confirm the assay call for `NC(CCl)=NCCC[C@H](N)C(=O)O` ?
Ans. inactive

Qu. Please state the recorded outcome for this molecule: OC(c1ccccc1)c1nnc(SCc2ccccc2)n1Cc1ccccc1 (configuration not stated)
Ans. inactive

Qu. Can you look up the reported call for `NCCOc1ccccc1/C=C1\c2ccccc2-c2ccc([N+](=O)[O-])cc21` for me?
Ans. active

Qu. Assay result, entry `CCOC(=O)c1cnc2ccc(Cl)cc2c1NCCCN(C)C` — outcome?
Ans. active

Qu. Please state the recorded outcome for this molecule: `O=C(CSc1ncccc1C(=O)O)Nc1ccc(Oc2ccccc2)cc1`
Ans. inactive

Qu. In this assay, the call recorded for `COc1ccc(/C=C/C(=O)c2ccc3cc(OC)c(OC)cc3c2)cc1OC` was what?
Ans. inactive

Qu. Tell me the recorded outcome of this test for COc1c(B(O)O)cccc1-c1nc2ccc3[nH]ncc3c2c2c1C1CCC2C1 (configuration not stated) .
Ans. active

Qu. Recorded test outcome, item `O=C1C(Cl)=C(NCc2ccco2)C(=O)c2ccccc21`
Ans. inactive

Qu. // return assay outcome for `O=C1NC(=S)NC(=O)C1=Cc1cn(Cc2cn(Cc3cccc4ccccc34)nn2)c2ccccc12`
Ans. inactive

Qu. Tell me the recorded outcome of this test for `CC(=O)c1ccc(Nc2nc(NCCO)nc(Nc3ccc(Cl)cc3)n2)cc1` .
Ans. inactive

Qu. What is the recorded call for this molecule in the test? `Cc1cc(Nc2ccc(OCc3ccccc3)cc2)nc2cc(O)ccc12`
Ans. inactive

Qu. For `C[n+]1c2ccccc2nc2ccc(NCCO)cc21` , what call appears in the results of this test?
Ans. inactive

Qu. Could you please tell me the result logged for `CN1CCN(Cc2ccc(C(=O)Nc3cncc(C#Cc4cnc5cccnn45)c3)cc2C(F)(F)F)CC1` in this assay?
Ans. inactive

Qu. Each molecule tested received a call. Report the one for `O=C(Nc1ccc(C23CC4CC(CC(c5ccccc5)(C4)C2)C3)cc1)c1cccs1` .
Ans. inactive

Qu. Answer briefly: the call reported for `O=C(Nc1ccc(Cl)cc1F)c1cc(F)ccc1O` in this assay.
Ans. active

Qu. Test call, this molecule: Nc1nc(N)c2c(n1)NC1(C=C(O)c3ccccc31)C1=C(N2)c2ccccc2C1=O (configuration not stated)
Ans. inactive
